# Test system: RPS6KB1 (human), P23443 [T412E]
# Sequence (P23443 whole entry T412E, looked up): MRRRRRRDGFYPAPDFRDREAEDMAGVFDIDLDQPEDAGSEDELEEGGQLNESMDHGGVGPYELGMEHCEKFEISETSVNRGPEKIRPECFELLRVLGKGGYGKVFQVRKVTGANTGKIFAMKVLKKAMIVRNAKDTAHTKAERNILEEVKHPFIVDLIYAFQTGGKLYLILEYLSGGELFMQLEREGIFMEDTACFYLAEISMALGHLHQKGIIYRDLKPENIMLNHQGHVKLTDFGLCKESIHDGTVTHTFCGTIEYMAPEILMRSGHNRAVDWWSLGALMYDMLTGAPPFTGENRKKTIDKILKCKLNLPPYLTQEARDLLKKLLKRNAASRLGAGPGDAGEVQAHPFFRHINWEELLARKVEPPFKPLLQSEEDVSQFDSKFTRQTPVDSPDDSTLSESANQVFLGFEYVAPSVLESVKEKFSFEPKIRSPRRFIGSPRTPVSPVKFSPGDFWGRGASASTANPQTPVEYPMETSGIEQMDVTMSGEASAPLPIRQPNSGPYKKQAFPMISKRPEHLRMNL
# assay-summary: radiometric filter-binding kinase assay
# measurement-conditions: compound 0.01 µM
quantity: residual activity (%)
Answers are plain numbers, in %.

>  <molecule>
CNC(=O)C1[C@H]2O[C@@](C)([C@@H]1N)n1c3ccccc3c3c4c(c5c6ccccc6n2c5c31)C(=O)NC4 (stereo partly specified)

>  <study-system>
RPS6KB1 (human), P23443 [T412E]

>  <residual activity (%)>
37

$$$$
>  <molecule>
C/C(=C1/C(=O)Nc2ccc(NC(N)=O)cc21)c1ccc[nH]1

>  <study-system>
RPS6KB1 (human), P23443 [T412E]

>  <residual activity (%)>
91

$$$$
>  <molecule>
COc1cc(O)c2c(c1)[C@H]1OC1C[C@H](O)[C@H](O)C(=O)/C=C\C[C@H](C)OC2=O (stereo partly specified)

>  <study-system>
RPS6KB1 (human), P23443 [T412E]

>  <residual activity (%)>
87

$$$$

For each entry beneath this line, provide reported residual activity.
1. O=C(Nc1nc2cc(C(F)(F)F)cc(NC3CC3)n2n1)c1cccnc1
2. CNc1nc(-c2ccc3c(N)n[nH]c3c2)cc(N2C[C@@H](C(=O)NC3CCCCC3)CC[C@H]2C)n1
3. COc1ccc(N(C(=O)Nc2c(C)cccc2C)c2cc(Nc3ccc(N4CCN(C)CC4)cc3)ncn2)c(OC)c1

Result ::
125
111
88

Numbers sourced from the kinase profiling compilation of Christmann-Franck et al. (2016).
